# assayed system: T1, recombinant human DLL4 (Cat# 1506-D4/CF, R&D Systems) (human, UniProt Q9NR61 27-529)
# T1 construct: Bought protein; also called hDLL4; rHuman DLL4
# assay summary: ELISA, DLL4 coated, Fab 0.41 nM
# Description: The plate was blocked by adding 1% BSA in Tris-buffered Saline Tween (TBST) and incubating for 1 hour at room temperature followed by washing 2 times with 150 μl TBST. A Fab antibody was serially diluted in 1% BSA in PBS. […] The reaction was immediately halted by the addition of 50 μl 0.5M H₂SO₄ and the absorbance at 450 nm was measured using an ELISA plate reader.
Each entry below lists one item and its recorded ELISA absorbance at 450 nm value.
Expressed in A450, but write only the number.

Fab VH5-51_IGHD5-18*01>3_IGHJ4*01 G100K/G104T G24T/S28R/G35V & V3-4_IGLJ1*01 V91L/S96P S52G (Fab, V domains shown, Fab made in E. coli: VH on CH1 with His6 and Flag tags (Plasmid A), VL on lambda CL (Plasmid E); also called H: KT TRV & L: LP S52G) VH: EVQLVQSGAEVKKPGESLKISCKTSGYRFTSYWIVWVRQMPGKGLEWMGIIYPGDSDTRYSPSFQGQVTISADKSISTAYLQWSSLKASDTAMYYCARRKYSYTYDYFDYWGQGTLVTVSS VL: QTVVTQEPSFSVSPGGTVTLTCGLSSGSVSTSYYPSWYQQTPGQAPRTLIYGTNTRSSGVPDRFSGSILGNKAALTITGAQADDESDYYCLLYMGPGISYVFGTGTKVTVL = 0.01
Fab VH5-51_IGHD5-18*01>3_IGHJ4*01 G100K/G104T G24T/S28R/G35V & V3-4_IGLJ1*01 V91L/S96P (Fab, V domains shown, Fab made in E. coli: VH on CH1 with His6 and Flag tags (Plasmid A), VL on lambda CL (Plasmid E); also called H: KT TRV & L: LP) VH: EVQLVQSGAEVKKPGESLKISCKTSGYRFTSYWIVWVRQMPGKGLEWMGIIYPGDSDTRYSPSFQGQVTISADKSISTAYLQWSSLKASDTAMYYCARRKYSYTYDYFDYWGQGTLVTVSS VL: QTVVTQEPSFSVSPGGTVTLTCGLSSGSVSTSYYPSWYQQTPGQAPRTLIYSTNTRSSGVPDRFSGSILGNKAALTITGAQADDESDYYCLLYMGPGISYVFGTGTKVTVL = 0.02

Consider the binder Fab VH5-51_IGHD5-18*01>3_IGHJ4*01 G100K/G104T G24T/S28R/G35V & V3-4_IGLJ1*01 V91L/S96P S52M (Fab, V domains shown, Fab made in E. coli: VH on CH1 with His6 and Flag tags (Plasmid A), VL on lambda CL (Plasmid E); also called H: KT TRV & L: LP S52M) VH: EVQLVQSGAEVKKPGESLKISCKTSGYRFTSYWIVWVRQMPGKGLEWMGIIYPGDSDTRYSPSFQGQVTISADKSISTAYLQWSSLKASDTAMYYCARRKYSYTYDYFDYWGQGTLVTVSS VL: QTVVTQEPSFSVSPGGTVTLTCGLSSGSVSTSYYPSWYQQTPGQAPRTLIYMTNTRSSGVPDRFSGSILGNKAALTITGAQADDESDYYCLLYMGPGISYVFGTGTKVTVL and give its measured ELISA absorbance at 450 nm. 0.03
